Assay: Half life in newborn infants at 20.6 mg/kg, po by gas chromatography
Type: ADME, organism-based
Conditions: human, in vivo
testReadout: half-life (h)
Quick reminder: number only, in h, skip the unit.

Ask | // lookup half-life for CCC1(c2ccccc2)C(=O)NC(=O)NC1=O
Reply | 83

* * *

Experiment: Disposition rate constant in subject at 4.33 mg/kg, po by gas chromatography
Format: ADME, organism-based
Details: male, human, in vivo
testReadout: k el (s⁻¹)
Quick reminder: number only, in s⁻¹, skip the unit.

Ask | // lookup k el for CCC1(c2ccccc2)C(=O)NC(=O)NC1=O
Reply | 2.28e-06

* * *

Assay: Drug excretion in newborn infants (4 patients) assessed as unchanged compound level in urine at measured during first 8 days by gas chromatography
Format: ADME
Details: human, read-out: Drug excretion
testReadout: dose excreted at 192 h (%)
Quick reminder: number only, in %, skip the unit.

Ask | // lookup dose excreted at 192 h for CCC1(c2ccccc2)C(=O)NC(=O)NC1=O
Reply | 17

* * *

Assay: Disposition rate constant in newborn infants at 11.4 mg/kg, im by gas chromatography
Format: ADME, organism-based
Conditions: human, in vivo
testReadout: k el (s⁻¹)
Quick reminder: number only, in s⁻¹, skip the unit.

Ask | // lookup k el for CCC1(c2ccccc2)C(=O)NC(=O)NC1=O
Reply | 1.61e-06

* * *

Assay: Half life in newborn infants at 11.4 mg/kg, im by gas chromatography
Assay type: ADME, organism-based
Settings: human, in vivo
testReadout: half-life (h)
Quick reminder: number only, in h, skip the unit.

Ask | // lookup half-life for CCC1(c2ccccc2)C(=O)NC(=O)NC1=O
Reply | 119

* * *

Assay: Disposition rate constant in newborn infants at 20.6 mg/kg, po by gas chromatography
Format: ADME, organism-based
Conditions: human, in vivo
testReadout: k el (s⁻¹)
Quick reminder: number only, in s⁻¹, skip the unit.

Ask | // lookup k el for CCC1(c2ccccc2)C(=O)NC(=O)NC1=O
Reply | 2.33e-06
